# maps each entry to its ED50
System: pyogenic streptococcus 102
Test details: Curative effect on mouse with abdominal infection (ED50)
Format: in vivo
Condition summary: Streptococcus, 102, 168 h, pyogenic streptococcus 102, challenging dose 7.8 × 10^4 CFU/0.5 ml, deaths in 7 days, Bliss, read-out: ED50

Compound	ED50 (mg/kg)
CC[C@H]1OC(=O)[C@H](C)[C@@H](O[C@H]2C[C@@](C)(OC)[C@@H](O)[C@H](C)O2)[C@H](C)[C@@H](O[C@@H]2O[C@H](C)C[C@H](N(C)C)[C@H]2O)[C@](C)(O)C[C@@H](C)CN(C)[C@H](C)[C@@H](O)[C@]1(C)O [azithromycin, reference compound]	159
COC1C(O)CC(=O)OC(C)C/C=C/C=C/C(OC2CCC(N(C)C)C(C)O2)C(C)CC(CC=O)C1OC1OC(C)C(OC2CC(C)(O)C(OC(=O)CC(C)C)C(C)O2)C(N(C)C)C1O (centres unmarked)	66.4
COC1C(OC(C)=O)CC(=O)OC(C)C/C=C/C=C/C(OC2CCC(N(C)C)C(C)O2)C(C)CC(CC=O)C1OC1OC(C)C(OC2CC(C)(O)C(OC(=O)CC(C)C)C(C)O2)C(N(C)C)C1O (centres unmarked)	63.2
CC[C@H]1OC(=O)[C@H](C)[C@@H](O[C@H]2C[C@@](C)(OC)[C@@H](O)[C@H](C)O2)[C@H](C)[C@@H](O[C@@H]2O[C@H](C)C[C@H](N(C)C)[C@H]2O)[C@](C)(O)C[C@@H](C)C(=O)[C@H](C)[C@@H](O)[C@]1(C)O [erythrocin, reference compound]	361
CCC(=O)OC1CC(=O)OC(C)C/C=C/C=C/C(OC2CCC(N(C)C)C(C)O2)C(C)CC(CC=O)C(OC2OC(C)C(OC3CC(C)(O)C(OC(=O)CC(C)C)C(C)O3)C(N(C)C)C2O)C1OC (centres unmarked)	63.2

* * *

System: hemophilus influenzae (37)
Test details: Clinical isolates, agar double dilution method
Format: cell-based
Condition summary: Haemophilus influenzae; 37 clinical isolates of hemophilus influenzae; read-out: MIC50
MIC50 overview

Compound	MIC50, µg/mL
CC[C@H]1OC(=O)[C@H](C)[C@@H](O[C@H]2C[C@@](C)(OC)[C@@H](O)[C@H](C)O2)[C@H](C)[C@@H](O[C@@H]2O[C@H](C)C[C@H](N(C)C)[C@H]2O)[C@](C)(O)C[C@@H](C)C(=O)[C@H](C)[C@@H](O)[C@]1(C)O [erythrocin, reference compound]	0.06
COC1C(O)CC(=O)OC(C)C/C=C/C=C/C(OC2CCC(N(C)C)C(C)O2)C(C)CC(CC=O)C1OC1OC(C)C(OC2CC(C)(O)C(OC(=O)CC(C)C)C(C)O2)C(N(C)C)C1O (centres unmarked)	0.12
COC1C(OC(C)=O)CC(=O)OC(C)C/C=C/C=C/C(OC2CCC(N(C)C)C(C)O2)C(C)CC(CC=O)C1OC1OC(C)C(OC2CC(C)(O)C(OC(=O)CC(C)C)C(C)O2)C(N(C)C)C1O (centres unmarked)	0.12
CCC(=O)OC1CC(=O)OC(C)C/C=C/C=C/C(OC2CCC(N(C)C)C(C)O2)C(C)CC(CC=O)C(OC2OC(C)C(OC3CC(C)(O)C(OC(=O)CC(C)C)C(C)O3)C(N(C)C)C2O)C1OC (centres unmarked)	0.12
CC[C@H]1OC(=O)[C@H](C)[C@@H](O[C@H]2C[C@@](C)(OC)[C@@H](O)[C@H](C)O2)[C@H](C)[C@@H](O[C@@H]2O[C@H](C)C[C@H](N(C)C)[C@H]2O)[C@](C)(O)C[C@@H](C)CN(C)[C@H](C)[C@@H](O)[C@]1(C)O [azithromycin, reference compound]	0.25
